Sourced from ChEMBL document CHEMBL1135093

Measured inhibition values are reported for all entries that follow.
Target: Phosphodiesterase 4 (Homo sapiens, UniProt P27815+Q08499+Q07343+Q08493)
Assay: Inhibition of human phosphodiesterase type IV (PDE4) at 10e-7 M
Assay type: protein assay
recorded-metric: inhibition (%)

[[record]]
chemical_structure = "COc1ccc2c(c1)CNN=C2Cc1c(Cl)cncc1Cl"
value_unit = "%"
recorded_value = 14

[[record]]
chemical_structure = "COc1ccc2c(Cc3c(Cl)cncc3Cl)nncc2c1"
value_unit = "%"
recorded_value = 0

[[record]]
chemical_structure = "COc1ccc2c(c1)CN(C(=O)N(C)C)N=C2Cc1c(Cl)cncc1Cl"
value_unit = "%"
recorded_value = 35

[[record]]
chemical_structure = "COc1ccc2c(c1)CN(C=O)N=C2Cc1c(Cl)cncc1Cl"
value_unit = "%"
recorded_value = 45


---

Molecular target: Phosphodiesterase 4 (Homo sapiens, UniProt P27815+Q08499+Q07343+Q08493)
Experiment: Affinity for rolipram binding site (RBS) of human neutrophil phosphodiesterase type IV (PDE4)
Type: protein assay
Measured Ki values are reported for all entries that follow.
recorded-metric: Ki (nM)

[[record]]
chemical_structure = "COc1ccc2c(c1)CN(C=O)N=C2Cc1c(Cl)cncc1Cl"
recorded_value = 138

[[record]]
chemical_structure = "COc1ccc2c(c1)CN(C(=O)NO)N=C2Cc1c(Cl)cncc1Cl"
recorded_value = 208

[[record]]
chemical_structure = "COc1ccc2c(c1)CN(C(=O)C(C)C)N=C2Cc1c(Cl)cncc1Cl"
recorded_value = 498


---

Target: Phosphodiesterase 4 (Homo sapiens, UniProt P27815+Q08499+Q07343+Q08493)
Test: Selectivity for rolipram binding site over phosphodiesterase 4
Format: protein assay
Classify by measured Ratio: 1.0 if it is equal to or exceeds 2, 0.0 if it is smaller.

[[record]]
chemical_structure = "COc1ccc2c(c1)CN(C(=O)Cc1ccccc1)N=C2Cc1c(Cl)cncc1Cl"
target_desc = "Phosphodiesterase 4 (Homo sapiens, UniProt P27815+Q08499+Q07343+Q08493)"
class_label = 1.0

[[record]]
chemical_structure = "COc1ccc2c(c1)CN(C(C)=O)N=C2Cc1c(Cl)cncc1Cl"
target_desc = "Phosphodiesterase 4 (Homo sapiens, UniProt P27815+Q08499+Q07343+Q08493)"
class_label = 1.0

[[record]]
chemical_structure = "COc1ccc2c(c1OC1CCCC1)CN(C(C)=O)N=C2Cc1c(Cl)cncc1Cl"
target_desc = "Phosphodiesterase 4 (Homo sapiens, UniProt P27815+Q08499+Q07343+Q08493)"
class_label = 1.0

[[record]]
chemical_structure = "COc1ccc2c(c1)CN(C(N)=O)N=C2Cc1c(Cl)cncc1Cl"
target_desc = "Phosphodiesterase 4 (Homo sapiens, UniProt P27815+Q08499+Q07343+Q08493)"
class_label = 0.0

[[record]]
chemical_structure = "COc1ccc2c(Cc3c(Cl)cncc3Cl)nncc2c1OC1CCCC1"
target_desc = "Phosphodiesterase 4 (Homo sapiens, UniProt P27815+Q08499+Q07343+Q08493)"
class_label = 1.0

[[record]]
chemical_structure = "COc1ccc2c(c1)CN(S(C)(=O)=O)N=C2Cc1c(Cl)cncc1Cl"
target_desc = "Phosphodiesterase 4 (Homo sapiens, UniProt P27815+Q08499+Q07343+Q08493)"
class_label = 1.0

[[record]]
chemical_structure = "COc1ccc2c(c1)CN(C(=O)c1ccccc1)N=C2Cc1c(Cl)cncc1Cl"
target_desc = "Phosphodiesterase 4 (Homo sapiens, UniProt P27815+Q08499+Q07343+Q08493)"
class_label = 1.0

[[record]]
chemical_structure = "COc1ccc2c(c1)CN(C(=O)C(C)C)N=C2Cc1c(Cl)cncc1Cl"
target_desc = "Phosphodiesterase 4 (Homo sapiens, UniProt P27815+Q08499+Q07343+Q08493)"
class_label = 1.0

[[record]]
chemical_structure = "COc1ccc2c(c1OC1CCCC1)CN(S(C)(=O)=O)N=C2Cc1c(Cl)cncc1Cl"
target_desc = "Phosphodiesterase 4 (Homo sapiens, UniProt P27815+Q08499+Q07343+Q08493)"
class_label = 1.0

[[record]]
chemical_structure = "CNC(=O)N1Cc2cc(OC)ccc2C(Cc2c(Cl)cncc2Cl)=N1"
target_desc = "Phosphodiesterase 4 (Homo sapiens, UniProt P27815+Q08499+Q07343+Q08493)"
class_label = 0.0


---

Measured IC50 values are reported for all entries that follow.
Target: Phosphodiesterase 4 (Homo sapiens, UniProt P27815+Q08499+Q07343+Q08493)
Assay: Inhibition of human neutrophil phosphodiesterase type IV (PDE4)
Type: protein assay
recorded-metric: IC50 (nM)

[[record]]
chemical_structure = "COc1ccc2c(c1)CN(C(C)=O)N=C2Cc1c(Cl)cncc1Cl"
target_desc = "Phosphodiesterase 4 (Homo sapiens, UniProt P27815+Q08499+Q07343+Q08493)"
recorded_metric = "IC50"
value_unit = "nM"
recorded_value = 51

[[record]]
chemical_structure = "COc1ccc2c(c1)CN(C(=O)Cc1ccccc1)N=C2Cc1c(Cl)cncc1Cl"
target_desc = "Phosphodiesterase 4 (Homo sapiens, UniProt P27815+Q08499+Q07343+Q08493)"
recorded_metric = "IC50"
value_unit = "nM"
recorded_value = 12

[[record]]
chemical_structure = "COc1ccc2c(c1)CN(S(C)(=O)=O)N=C2Cc1c(Cl)cncc1Cl"
target_desc = "Phosphodiesterase 4 (Homo sapiens, UniProt P27815+Q08499+Q07343+Q08493)"
recorded_metric = "IC50"
value_unit = "nM"
recorded_value = 21

[[record]]
chemical_structure = "CCC(=O)N1Cc2cc(OC)ccc2C(Cc2c(Cl)cncc2Cl)=N1"
target_desc = "Phosphodiesterase 4 (Homo sapiens, UniProt P27815+Q08499+Q07343+Q08493)"
recorded_metric = "IC50"
value_unit = "nM"
recorded_value = 28

[[record]]
chemical_structure = "COc1ccc2c(c1OC1CCCC1)CN(S(C)(=O)=O)N=C2Cc1c(Cl)cncc1Cl"
target_desc = "Phosphodiesterase 4 (Homo sapiens, UniProt P27815+Q08499+Q07343+Q08493)"
recorded_metric = "IC50"
value_unit = "nM"
recorded_value = 2


---

Target: Phosphodiesterase 4 (Homo sapiens, UniProt P27815+Q08499+Q07343+Q08493)
Test: Affinity for rolipram binding site (RBS) of human neutrophil phosphodiesterase type IV (PDE4)
Assay type: protein assay
Measured Ki values are reported for all entries that follow.
recorded-metric: Ki (nM)

[[record]]
chemical_structure = "CNC(=O)N1Cc2cc(OC)ccc2C(Cc2c(Cl)cncc2Cl)=N1"
recorded_value = 235

[[record]]
chemical_structure = "COc1ccc2c(c1OC1CCCC1)CN(S(C)(=O)=O)N=C2Cc1c(Cl)cncc1Cl"
recorded_value = 5

[[record]]
chemical_structure = "COC(=O)N1Cc2cc(OC)ccc2C(Cc2c(Cl)cncc2Cl)=N1"
recorded_value = 199

[[record]]
chemical_structure = "COc1ccc2c(c1)CN(C(N)=O)N=C2Cc1c(Cl)cncc1Cl"
recorded_value = 63

[[record]]
chemical_structure = "COc1ccc2c(c1)CN(S(C)(=O)=O)N=C2Cc1c(Cl)cncc1Cl"
recorded_value = 60

[[record]]
chemical_structure = "CCOC(=O)C(=O)N1Cc2cc(OC)ccc2C(Cc2c(Cl)cncc2Cl)=N1"
recorded_value = 212

[[record]]
chemical_structure = "COc1ccc2c(c1)CN(C(C)=O)N=C2Cc1c(Cl)cncc1Cl"
recorded_value = 397

[[record]]
chemical_structure = "CCC(=O)N1Cc2cc(OC)ccc2C(Cc2c(Cl)cncc2Cl)=N1"
recorded_value = 237

[[record]]
chemical_structure = "COc1ccc2c(c1)CN(C(=O)N(C)C)N=C2Cc1c(Cl)cncc1Cl"
recorded_value = 473

[[record]]
chemical_structure = "COc1ccc2c(c1OC1CCCC1)CN(C(C)=O)N=C2Cc1c(Cl)cncc1Cl"
recorded_value = 128


---

Target: Phosphodiesterase 4 (Homo sapiens, UniProt P27815+Q08499+Q07343+Q08493)
Experiment: Inhibition of human neutrophil phosphodiesterase type IV (PDE4)
Type: protein assay
Measured IC50 values are reported for all entries that follow.
recorded-metric: IC50 (nM)

[[record]]
chemical_structure = "COc1ccc2c(c1)CN(C(N)=O)N=C2Cc1c(Cl)cncc1Cl"
recorded_metric = "IC50"
recorded_value = 36

[[record]]
chemical_structure = "COc1ccc2c(c1OC1CCCC1)CN(C(C)=O)N=C2Cc1c(Cl)cncc1Cl"
recorded_metric = "IC50"
recorded_value = 30

[[record]]
chemical_structure = "COc1ccc2c(c1)CN(C(=O)C(C)C)N=C2Cc1c(Cl)cncc1Cl"
recorded_metric = "IC50"
recorded_value = 25

[[record]]
chemical_structure = "COC(=O)N1Cc2cc(OC)ccc2C(Cc2c(Cl)cncc2Cl)=N1"
recorded_metric = "IC50"
recorded_value = 72

[[record]]
chemical_structure = "CNC(=O)N1Cc2cc(OC)ccc2C(Cc2c(Cl)cncc2Cl)=N1"
recorded_metric = "IC50"
recorded_value = 131

[[record]]
chemical_structure = "COc1ccc2c(c1)CN(C(=O)NO)N=C2Cc1c(Cl)cncc1Cl"
recorded_metric = "IC50"
recorded_value = 85

[[record]]
chemical_structure = "COc1ccc2c(c1)CN(C(=O)c1ccccc1)N=C2Cc1c(Cl)cncc1Cl"
recorded_metric = "IC50"
recorded_value = 30

[[record]]
chemical_structure = "CCOC(=O)C(=O)N1Cc2cc(OC)ccc2C(Cc2c(Cl)cncc2Cl)=N1"
recorded_metric = "IC50"
recorded_value = 113

